Here, molecules appear alongside IC50 reported for Prostaglandin G/H synthase 1 (Homo sapiens, UniProt P23219) in the literature.

Molecule	IC50
COc1ccc(C2CC(c3ccc(Cl)c(Cl)c3)=NN2C2=NC(=O)CS2)cc1 (stereo not given)	> 50 µM

Look up IC50 for this molecule: `COc1ccc(/C=C/c2cc(OC)cc(OC)c2/C=C/C(=O)N2CCC(c3ccccc3)CC2)cc1`
> 50 µM

Cool, now `CC(C)(C)n1ncc(-c2ccc(S(C)(=O)=O)cc2)c(-c2ccccc2)c1=O`
> 10 µM

Another: `COc1cccc(-c2c(-c3ccc(S(C)(=O)=O)cc3)sc3ncnn23)c1`
> 50 µM

Note, next up: `CCCCCc1cc(OC(=O)c2c(O)cc(O)cc2CCCCC)cc(O)c1C(=O)O`
> 30 µM
